src = patent US10328052B2

measurement_target: CYP2C9 (Homo sapiens, UniProt P11712)
Sequence (P11712 whole entry): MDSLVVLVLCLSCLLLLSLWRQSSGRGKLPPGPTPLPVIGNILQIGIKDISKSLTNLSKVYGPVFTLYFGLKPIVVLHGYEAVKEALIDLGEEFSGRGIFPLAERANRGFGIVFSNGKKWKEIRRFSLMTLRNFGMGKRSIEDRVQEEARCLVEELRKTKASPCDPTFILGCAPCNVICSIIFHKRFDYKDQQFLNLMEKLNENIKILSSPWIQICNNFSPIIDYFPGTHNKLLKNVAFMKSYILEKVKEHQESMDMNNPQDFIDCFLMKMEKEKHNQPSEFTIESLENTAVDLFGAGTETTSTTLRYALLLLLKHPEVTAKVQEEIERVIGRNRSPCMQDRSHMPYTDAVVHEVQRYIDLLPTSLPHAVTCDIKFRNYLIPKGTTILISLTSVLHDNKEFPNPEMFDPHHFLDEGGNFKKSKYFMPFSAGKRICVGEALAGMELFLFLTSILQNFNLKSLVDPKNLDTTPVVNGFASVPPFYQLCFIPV
observed_property: IC50

compound="O=C(OCOC(=O)[C@H]1CCCN1C(=O)CCCCC(=O)N1CCC[C@@H]1C(=O)OCOC(=O)C1CCOCC1)C1CCOCC1 [Compound of Formula (I)]" observed_property=IC50 value_measured="> 33 µM"

###

experiment_summary: Solubility in aqueous media
Format: physicochemical
condition_notes: water (purified water), thermodynamic from solid; Water, 4 hour timepoint; read-out: Solubility (mg/mL) at 4 hour timepoint
observed_property: solubility at 4 h (mg/mL)

molecule="O=C(OCOC(=O)[C@H]1CCCN1C(=O)CCCCC(=O)N1CCC[C@@H]1C(=O)OCOC(=O)C1CCOCC1)C1CCOCC1 [Compound of Formula (I)]" value_measured=0.574

###

experiment_summary: Solubility in aqueous media
Assay type: physicochemical
condition_notes: thermodynamic from solid; FeSSIF (Simulated Fed State Intestinal Fluid pH 6.5), 4 hour timepoint; read-out: Solubility (mg/mL) at 4 hour timepoint
observed_property: solubility at 4 h (mg/mL)

mol_smiles=O=C(OCOC(=O)[C@H]1CCCN1C(=O)CCCCC(=O)N1CCC[C@@H]1C(=O)OCOC(=O)C1CCOCC1)C1CCOCC1 value_measured=0.599

###

measurement_target: CYP3A4 (Homo sapiens, UniProt P08684)
Construct: purchased Cypex; host or cells: bactosomes (bacterial membranes)
Sequence (P08684 whole entry): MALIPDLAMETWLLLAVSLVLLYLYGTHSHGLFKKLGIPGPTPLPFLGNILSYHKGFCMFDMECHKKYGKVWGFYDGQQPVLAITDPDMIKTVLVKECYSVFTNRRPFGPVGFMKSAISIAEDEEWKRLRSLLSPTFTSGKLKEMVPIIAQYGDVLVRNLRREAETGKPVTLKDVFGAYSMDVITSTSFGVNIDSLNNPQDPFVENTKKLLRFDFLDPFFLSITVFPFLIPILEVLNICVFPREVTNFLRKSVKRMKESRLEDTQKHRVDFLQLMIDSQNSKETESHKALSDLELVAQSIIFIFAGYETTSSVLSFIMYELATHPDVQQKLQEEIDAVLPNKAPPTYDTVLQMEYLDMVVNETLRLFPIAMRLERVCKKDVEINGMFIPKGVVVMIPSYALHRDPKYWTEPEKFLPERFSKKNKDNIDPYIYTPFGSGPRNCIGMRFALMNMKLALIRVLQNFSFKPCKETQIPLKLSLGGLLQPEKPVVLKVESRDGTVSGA
experiment_summary: Cytochrome p450 inhibition, bactosomes, fluorogenic substrates 7BQ and DEF
Format: in vitro ADME
condition_notes: bactosomes, substrate 7BQ; read-out: IC50 CYP3A4 (7BQ)
observed_property: IC50

compound="O=C(OCOC(=O)[C@H]1CCCN1C(=O)CCCCC(=O)N1CCC[C@@H]1C(=O)OCOC(=O)C1CCOCC1)C1CCOCC1 [Compound of Formula (I)]" observed_property=IC50 value_measured="> 33 µM"

###

As an illustration, consider measured IC50 for molecules on CYP2D6 (Homo sapiens, UniProt P10635).
Sequence (P10635 whole entry): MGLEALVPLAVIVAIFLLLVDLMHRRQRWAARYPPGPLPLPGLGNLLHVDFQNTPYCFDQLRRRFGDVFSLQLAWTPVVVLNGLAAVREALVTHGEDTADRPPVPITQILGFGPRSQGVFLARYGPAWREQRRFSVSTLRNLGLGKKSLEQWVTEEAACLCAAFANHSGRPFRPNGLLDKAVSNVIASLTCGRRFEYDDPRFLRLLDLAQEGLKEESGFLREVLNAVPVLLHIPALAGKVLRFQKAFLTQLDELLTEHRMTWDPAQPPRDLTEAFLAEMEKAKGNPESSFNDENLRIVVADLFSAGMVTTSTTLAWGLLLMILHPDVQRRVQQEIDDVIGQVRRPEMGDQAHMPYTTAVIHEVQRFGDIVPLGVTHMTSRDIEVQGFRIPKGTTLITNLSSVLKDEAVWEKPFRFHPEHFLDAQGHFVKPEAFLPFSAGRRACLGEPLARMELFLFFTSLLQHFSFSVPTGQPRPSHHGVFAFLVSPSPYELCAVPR
observed_property: IC50

mol_smiles=O=C(OCOC(=O)[C@H]1CCCN1C(=O)CCCCC(=O)N1CCC[C@@H]1C(=O)OCOC(=O)C1CCOCC1)C1CCOCC1 observed_property=IC50 value_measured="> 33 µM"
mol_smiles=O=C(OCOC(=O)[C@H]1CCCN1C(=O)CCCCC(=O)N1CCC[C@@H]1C(=O)O)C1CCOCC1 observed_property=IC50 value_measured="> 33 µM"

###

measurement_target: CYP1A2 (Homo sapiens)
Sequence (P05177 1-516): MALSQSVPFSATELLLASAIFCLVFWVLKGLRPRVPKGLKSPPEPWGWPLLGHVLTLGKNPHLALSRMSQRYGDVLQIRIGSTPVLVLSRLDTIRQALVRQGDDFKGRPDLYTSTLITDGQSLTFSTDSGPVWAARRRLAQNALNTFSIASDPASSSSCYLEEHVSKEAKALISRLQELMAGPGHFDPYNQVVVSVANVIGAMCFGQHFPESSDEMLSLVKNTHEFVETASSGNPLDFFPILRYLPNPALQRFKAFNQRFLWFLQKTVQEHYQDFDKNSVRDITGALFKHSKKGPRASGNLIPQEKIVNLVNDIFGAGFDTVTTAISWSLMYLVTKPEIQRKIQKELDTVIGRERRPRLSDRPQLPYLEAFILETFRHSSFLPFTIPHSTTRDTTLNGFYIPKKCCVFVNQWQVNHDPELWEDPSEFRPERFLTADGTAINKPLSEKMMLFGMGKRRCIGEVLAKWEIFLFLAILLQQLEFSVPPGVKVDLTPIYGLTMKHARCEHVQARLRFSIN
observed_property: IC50

mol_smiles=O=C(OCOC(=O)[C@H]1CCCN1C(=O)CCCCC(=O)N1CCC[C@@H]1C(=O)OCOC(=O)C1CCOCC1)C1CCOCC1 observed_property=IC50 value_measured="> 33 µM"
mol_smiles=O=C(OCOC(=O)[C@H]1CCCN1C(=O)CCCCC(=O)N1CCC[C@@H]1C(=O)O)C1CCOCC1 observed_property=IC50 value_measured="> 33 µM"

###

experiment_summary: Solubility in aqueous media
Assay type: physicochemical
condition_notes: thermodynamic from solid; SGF (Simulated Gastric Fluid pH 1.6), 4 hour timepoint; read-out: Solubility (mg/mL) at 4 hour timepoint
observed_property: solubility at 4 h (mg/mL)

compound="O=C(OCOC(=O)[C@H]1CCCN1C(=O)CCCCC(=O)N1CCC[C@@H]1C(=O)OCOC(=O)C1CCOCC1)C1CCOCC1 [Compound of Formula (I)]" value_measured=0.577

###

experiment_summary: Solubility in aqueous media
Assay type: physicochemical
condition_notes: thermodynamic from solid; FaSSIF (Simulated Fasted State Intestinal Fluid pH 6.5), 4 hour timepoint; read-out: Solubility (mg/mL) at 4 hour timepoint
observed_property: solubility at 4 h (mg/mL)

mol_smiles=O=C(OCOC(=O)[C@H]1CCCN1C(=O)CCCCC(=O)N1CCC[C@@H]1C(=O)OCOC(=O)C1CCOCC1)C1CCOCC1 units_of_measure=mg/mL value_measured=1.04
